Data origin, for the record: PubChem BioAssay AID624407

# System: parental CHO-K1 cells, HTRF counterscreen
# Assay Remarks: antagonist activity in parental CHO-K1 cells, late-stage follow-up, counter-screen for OX1R antagonist project, cell-based, HTRF, dose response (AID 624407)
Activity calls are given as the source filed them. The rule behind the calls is not given here.
# output must be one of 1 = active, 0 = inactive

Input line: Please let me know the test result on file for O=c1cc(CN2CC(O)Cc3ccc4ccccc4c32)nc2sccn12 (stereo unspecified) .
Output line: 0

Input line: Same thing, different compound: O=C(CSc1ccc(-c2ccccc2)nn1)c1cccs1
Output line: 0

Input line: Consider next the compound CCn1c(SCC(=O)Nc2ccc3c(c2)c2ccccc2n3CC)nnc1-c1cnccn1 in the same way.
Output line: 0

Input line: Please answer likewise for Cc1ccc(-c2csc3nnc(SCC(=O)Nc4nsc(-c5ccccc5)n4)n23)cc1
Output line: 0

Input line: Cool, now Fc1cccc(Nc2nc3ccccc3n3cnnc23)c1
Output line: 0

Input line: What about this compound? Cc1cccc(C=NNC(=O)c2cc3c(s2)-c2ccccc2CC3)c1
Output line: 0

Input line: Another compound: CSc1cccc(N2CC(C(=O)NCCN3C(=O)S/C(=C\c4cccnc4)C3=O)CC2=O)c1 (stereo unspecified)
Output line: 1

Input line: // same read-out, input: CCOc1ccccc1C(=O)Nc1ccc2nc3n(c(=O)c2c1)CCCCC3
Output line: 0

Input line: Next up: CSc1cccc(NC(=O)C2CCCN2S(=O)(=O)c2ccc(Br)s2)c1 (stereo unspecified)
Output line: 0

Input line: Consider next the compound CN(N=Cc1cc([N+](=O)[O-])ccc1O)c1ccccc1 in the same way.
Output line: 0

Input line: Please give the result for CCc1cc2c(SCC(=O)N(CC)c3c(N)n(Cc4ccccc4)c(=O)[nH]c3=O)ncnc2s1 too.
Output line: 0

Input line: Subsequent entry: COCCCNC(=O)CCC(=O)NNc1nc2ccccc2c2nc(-c3ccccc3)nn12
Output line: 0

Input line: Similarly, Cc1noc(C)c1COc1ccc(C(=O)OCC(=O)N2CC(=O)Nc3ccccc32)cc1 ?
Output line: 0

Input line: Record: CCc1cc(C(=O)OCC(=O)N2CCC(c3ccccc3)=N2)sc1C
Output line: 0

Input line: Similarly, COc1ccc(OC)c(S(=O)(=O)NCC(c2ccco2)N2CCc3ccccc32)c1 (stereo unspecified) ?
Output line: 0

Input line: Next up: COc1cccc(/C=C2/Oc3ccccc3N(CC(=O)NCC3CCCO3)C2=O)c1 (stereo unspecified)
Output line: 0

Input line: Now the compound Cc1ccccc1NC(=O)C1CCCN1S(=O)(=O)c1ccccc1C(F)(F)F (stereo unspecified)
Output line: 0

Input line: What about this compound? Cc1cccc(NC(=O)[C@@H]2CCCN2S(=O)(=O)c2ccc(Cl)cc2)c1
Output line: 0

Input line: What about COc1cc(OC)c(-c2nc3ccccc3s2)cc1OC ?
Output line: 0

Input line: Field entry: Cc1c(NS(=O)(=O)c2cccc(C(=O)OCC(=O)N(C)C3CCCCC3)c2)c(=O)n(-c2ccccc2)n1C
Output line: 0

Input line: Would you kindly repeat that for Cc1cc(Cl)ccc1OCCCC(=O)NCCN1C(=O)S/C(=C\c2cccnc2)C1=O ?
Output line: 1

====

# Tested on: parental CHO-K1 cells, HTRF counterscreen
# Assay Remarks: antagonist activity in parental CHO-K1 cells, late-stage follow-up, counter-screen for OX1R antagonist project, cell-based, HTRF, dose response (AID 624407)
Active and inactive are the calls of the source. The rule behind the calls is not given here.
Task for the reader: assign each of the following compounds its reported IC50.

Input line: Entry under review: O=C(CN1C(=O)/C(=C\c2cccc(Br)c2)Oc2ccccc21)NCC1CCCO1 (stereo not given) . Reported IC50?
Output line: > 59.6 µM (inactive)

Input line: Now consider CCSC1=C(C#N)C(c2ccccc2Cl)C(C(=O)c2cccs2)C(O)(C(F)(F)F)N1 (stereo not given) .
Output line: > 59.6 µM (inactive)

Input line: Let us now turn to CCOC(=O)N1CCN(C(=O)CSc2ccc(-c3ccccc3)nn2)CC1
Output line: > 59.6 µM (inactive)

Input line: CC(=C/c1ccccc1)/C=C1/SC(N2CCOCC2)=NC1=O ?
Output line: 12.4 µM (inactive)

Input line: Same lookup for CCN(CC)c1ccc(NC(=O)Cn2c(C(C)NC(=O)c3ccccc3)nc3ccccc32)cc1 (stereo not given) , please.
Output line: > 59.6 µM (inactive)
